The values you see were collected from the supplement of paper PMC8371130.

Listed below: relative cell viability values for each entry.
- System: HL-1
- ASSAY PROCEDURE: relative cell viability (CellTiter-Glo) vs DMSO control (% of DMSO control); higher = more viable cells
- TEST SETTINGS: oxygen condition: normoxia 72 h; 200 nM
Where a name gives a salt, the structure may show the parent alone.
Respond using a number only.

# count of solved cases: 2
* COc1ccc([C@@H]2Sc3ccccc3N(CCN(C)C)C(=O)[C@@H]2OC(C)=O)cc1 [Diltiazem HCl] | 108
* CCCCNc1cc(C(=O)O)cc(S(N)(=O)=O)c1Oc1ccccc1 [Bumetanide] | 96.8

What measured relative cell viability goes with CCN(Cc1ccncc1)C(=O)C(CO)c1ccccc1 (centres undefined) [Tropicamide] ?
102

Which relative cell viability is listed for CC(O)(P(=O)(O)O)P(=O)(O)O [Etidronate] ?
96.5

relative cell viability lookup needed for CN[C@@H]1[C@H](O)[C@H](NC)[C@H]2O[C@@]3(O)C(=O)C[C@@H](C)O[C@H]3O[C@@H]2[C@H]1O [Spectinomycin hydrochloride] , thanks.
86.5

Reported relative cell viability, compound C[C@@H](CN1CC(=O)NC(=O)C1)N1CC(=O)NC(=O)C1 [Dexrazoxane Hydrochloride] : ____
96.3

###

- System: HL-1
- ASSAY PROCEDURE: relative cell viability (CellTiter-Glo) vs DMSO control (% of DMSO control); higher = more viable cells
- TEST SETTINGS: oxygen condition: normoxia 72 h; 40 nM
A collection of compounds and their measured relative cell viability
When you answer, write just the number.

Below, each entry is followed by its recorded relative cell viability result.
- CC(=O)OCC(=O)[C@@]1(O)CC[C@H]2[C@@H]3CCC4=CC(=O)CC[C@]4(C)[C@H]3C(=O)C[C@@]21C [Cortisone acetate]: 94.7
- COC(=O)C1=C(C)NC(C)=C(C(=O)OC(C)C)C1c1cccc2nonc12 (centres undefined): 108

Look at this compound and give its reported relative cell viability. "CO[C@H]1C[C@@H]2CC[C@@H](C)[C@@](O)(O2)C(=O)C(=O)N2CCCC[C@H]2C(=O)O[C@H]([C@H](C)C[C@@H]2CC[C@@H](OC(=O)C(C)(CO)CO)[C@H](OC)C2)CC(=O)[C@H](C)/C=C(\C)[C@@H](O)[C@@H](OC)C(=O)[C@H](C)C[C@H](C)/C=C/C=C/C=C/1C"
60.2

Suppose we examine the compound "COC(c1ccccc1)(c1ccccc1)[C@H](Oc1nc(C)cc(C)n1)C(=O)O" ; what relative cell viability value has been reported?
95.1

###

- Tested on: HL-1
- ASSAY PROCEDURE: relative cell viability (CellTiter-Glo) vs DMSO control (% of DMSO control); higher = more viable cells
- TEST SETTINGS: oxygen condition: normoxia 72 h; 5000 nM
Where a name gives a salt, the structure may show the parent alone.
Reported relative cell viability by item:
# print the numeric value only

These recorded examples may help you get a feel for the data.
• CN1CCN(C2=Nc3cc(Cl)ccc3Nc3ccccc32)CC1 [Clozapine] = 102
• CCOc1cc(N)c(Cl)cc1C(=O)NCC1CN(Cc2ccc(F)cc2)CCO1 (stereo not given) [Mosapride citrate] = 109
• CNCC[C@H](Oc1cccc2ccccc12)c1cccs1 [Duloxetine HCl] = 104
• C#Cc1cccc(Nc2ncnc3cc(OCCOC)c(OCCO)cc23)c1 = 121
• Nc1[nH]cnc2ncnc1-2 [Adenine] = 106

# lookup: relative cell viability of O=c1c(-c2ccc(O)cc2)coc2cc(O)cc(O)c12 [Genistein]
111

Which relative cell viability reading was recorded for the compound Cc1ncc(CO)c(CO)c1O [Pyridoxine hydrochloride] ?
114

Requested field: relative cell viability. Item: CCOC(=O)c1ccc(OC(=O)CCCCCNC(=N)N)cc1 [Gabexate mesylate]
110

Query (compound): C=CCc1cc(OC)c(O)c(C(=O)NCCO)c1 [Alibendol] ; field requested: relative cell viability
115

Returns the measured relative cell viability for the input compound. Input: O=P(O)(O)C(O)(Cc1cccnc1)P(=O)(O)O [Risedronate sodium]
116

###

- Test system: HL-1
- ASSAY PROCEDURE: relative cell viability (CellTiter-Glo) vs DMSO control (% of DMSO control); higher = more viable cells
- TEST SETTINGS: oxygen condition: hypoxia 48 h (1% O2) + reoxygenation 24 h; 1000 nM
Structures can show the parent of a compound that is named as a salt.
Entries and their relative cell viability values follow.
Please state the value as a number alone, without comment.

Reference set (7 entries):
- CCCCCCCCCCC[C@@H](C[C@@H]1OC(=O)[C@H]1CCCCCC)OC(=O)[C@H](CC(C)C)NC=O [Orlistat]: 94.9
- CCOC(=O)[C@H](CCc1ccccc1)N[C@@H](C)C(=O)N1C(=O)N(C)C[C@H]1C(=O)O [Imidapril]: 99.3
- CCN(CC)CC(=O)Nc1c(C)cccc1C [Lidocaine]: 104
- Cc1onc(-c2ccccc2)c1-c1ccc(S(N)(=O)=O)cc1 [Bextra]: 104
- O=C(O)C[C@H](O)C[C@H](O)/C=C/c1c(C2CC2)nc2ccccc2c1-c1ccc(F)cc1 [Pitavastatin calcium]: 85.5
- CCCCc1oc2ccc(NS(C)(=O)=O)cc2c1C(=O)c1ccc(OCCCN(CCCC)CCCC)cc1 [Dronedarone HCl]: 102
- CCCc1nc2c(C)cc(-c3nc4ccccc4n3C)cc2n1Cc1ccc(-c2ccccc2C(=O)O)cc1 [Telmisartan]: 105

Now turn to the next compound.
Query: relative cell viability; subject: CN(C)CCOc1ccc(/C(=C(/CCCl)c2ccccc2)c2ccccc2)cc1 [Toremifene Citrate]
108

###

- System: HL-1
- ASSAY PROCEDURE: relative cell viability (CellTiter-Glo) vs DMSO control (% of DMSO control); higher = more viable cells
- TEST SETTINGS: oxygen condition: hypoxia 48 h (1% O2) + reoxygenation 24 h; 5000 nM
Where a name gives a salt, the structure may show the parent alone.
MEASURE NAME: relative cell viability
Form field (numeric): enter value without unit.

Suppose we examine the compound "CC1=C(/C=C/C(C)=C/C=C/C(C)=C/C(=O)O)C(C)(C)CCC1" ; what relative cell viability value has been reported?
100

What measured relative cell viability goes with "CC(C)(Oc1ccc(Cl)cc1)C(=O)O" ?
115

Reported relative cell viability for O=NO [Sodium nitrite] : what is it?
122

Param item = CN(C)CCCN1c2ccccc2CCc2ccccc21 [Imipramine HCl] ; retrieve measured relative cell viability.
110

Request the reported relative cell viability associated with Cl.N=C(N)NCCC[C@H](N)C(=O)O [L-Arginine HCl]
118

Reported relative cell viability for "CS(=O)(=O)c1ccc(C2=C(c3ccccc3)C(=O)OC2)cc1" : what is it?
107

Sample CC(=O)Nc1ccccc1 [Acetanilide] — what was its relative cell viability?
111

Which relative cell viability is reported for this compound? CC(C)NCC(O)c1ccc(NS(C)(=O)=O)cc1 (stereo not given)
99.8

relative cell viability lookup needed for Cc1cccc(N(C)C(=S)Oc2ccc3ccccc3c2)c1 [Tolnaftate] , thanks.
105

Can you share its relative cell viability? I mean this compound: CC[C@@]1(O)C(=O)OCc2c1cc1n(c2=O)Cc2cc3c(CN(C)C)c(O)ccc3nc2-1 [Topotecan HCl]
9.1

Record request: relative cell viability value, item N=C(N)NC(=O)c1nc(Cl)c(N)nc1N [Amiloride hydrochloride dihydrate]
118

Form field: reported relative cell viability of "CNC[C@@H](O)c1ccc(O)c(O)c1"
99.2

# relative cell viability lookup, item CC(=O)OCC[N+](C)(C)C [Acetylcholine chloride]
106

###

- Tested on: HL-1
- ASSAY PROCEDURE: relative cell viability (CellTiter-Glo) vs DMSO control (% of DMSO control); higher = more viable cells
- TEST SETTINGS: oxygen condition: normoxia 72 h; 1000 nM
Counter-ions that a name gives are not always drawn.
Quick reference for relative cell viability among some molecules

• C=C1CC[C@H](O)C/C1=C/C=C1\CCC[C@]2(C)[C@@H]([C@H](C)/C=C/[C@H](C)C(C)C)CC[C@@H]12 [Vitamin D2] = 109
• Nc1nc(Cl)nc2c1ncn2[C@@H]1O[C@H](CO)[C@@H](O)[C@@H]1F = 3.43
• CC(=O)O[C@@]12CO[C@@H]1C[C@H](O)[C@@]1(C)C(=O)[C@H](O)C3=C(C)[C@@H](OC(=O)[C@H](O)[C@@H](NC(=O)OC(C)(C)C)c4ccccc4)C[C@@](O)([C@@H](OC(=O)c4ccccc4)[C@H]21)C3(C)C = 22.6
• CN(c1nccc(=O)[nH]1)C1CCN(c2nc3ccccc3n2Cc2ccc(F)cc2)CC1 = 101
• C[C@H]1c2cccc(O)c2C(=O)C2=C(O)[C@]3(O)C(=O)C(C(N)=O)=C(O)[C@@H](N(C)C)[C@@H]3[C@@H](O)[C@@H]21 [Doxycycline HCl] = 95.6

Please look up its relative cell viability: "C#C[C@]1(O)CC[C@H]2[C@@H]3CCc4cc(O)ccc4[C@H]3CC[C@@]21C"
108
